Hello, the source for this data is the supplement of paper PMC9170038, in case you need it.

system: MS2 coat protein; experiment: apparent KD of MS2 coat protein; designed switch direction (-1 OFF switch, 1 ON switch): -1; higher = weaker reporter binding; settings: input ligand: none

# seq, apparent KD of MS2 coat protein, nM
measured = [
    ("GUUGGUAAGUCAGGAUAUCCCUGUAAUGGCAGCGGAGAAGGGACAUGAGGAUCACCCAUGUGAACCUCCGGCGGAUAAACCCGC [Ancelave] (Eterna round: R96, puzzle: Exclusion NG 1)", 23.6),
    ("CCCAGUUAUUGAGGAUAUUGUACAUGAGGAUCACCCAUGUAAUAAAUGAGGAUUUCGGGUGUCUACAAGAAGGCAAGGAUAGGC [Ostracism 20 - Jieux - Exclusion NG 2] (Eterna round: R96, puzzle: Exclusion NG 2)", 46.8),
    ("AAUAACAAGCCGAUCCUCCACAUGAGGAUCACCCAUGUGCUCGUCUUGUAAAGUACUAUCACGAAAGUGAUAGUACA (Eterna round: R97, puzzle: Sensor, turn-off variant 1)", 44),
    ("UUUAUAUAUGAAGGAUAUACUUAACAUGAGGAUCACCCAUGUGGUGUUGUGAGUGAGUGAGUUUAGUAGAAGGUCAAUUCUUUU [JMF's solution 91] (Eterna round: R96, puzzle: Exclusion NG 2)", 362),
    ("CCUCCCGCCGUCAGGAUAUGCCGUACCGCUGCGCUACAGAAGGCACUUGAGGAUCACCCAAGUACCCGUGAGGC [salish99_bmod_ex4_r4_010] (Eterna round: R97, puzzle: Brourd's mod of Exclusion 4)", 15.7),
    ("GUGGGUUACAUGAGGAUCACCCAUGUAUAGUGGGAAGAGAUAUAGGAUAUAAUGUAAAAAUUAUAUUAGAAGGAUAGAGACUAG [AK ExNG3-1.3] (Eterna round: R96, puzzle: Exclusion NG 3)", 553),
    ("AGAUAACAUGAGGAUCACCCAUGUCAGGAUAUCGACUGAACAGCUUCGGCUGUUCAGUCGAGAAGGGACAAUUA [Brourdxlusion 9 - Jieux - Exclusion 1] (Eterna round: R97, puzzle: Exclusion 1)", 61.2),
    ("UCUAACCAUGUAGGAUAUGCGUGGCUAAGCUAUGCAGAAGGACAUGAGGAUCACCCAUGUGCCUCCGUCUGCGUACAGUCGGCU [EXclNG1-LROPPY01] (Eterna round: R96, puzzle: Exclusion NG 1)", 18.5),
    ("ACAUGUUAUCUAGGAUAUUGGACACAUGAGGAUCACCCAUGUACCCGGAGGCUUUACUAUGAGUUCGAGAAGGAGAUGUACAUG [Ex NG2 #71] (Eterna round: R96, puzzle: Exclusion NG 2)", 73.1),
]
